Test: Cmax in mouse at 10 mg/kg, po by LC-MS/MS method
Assay type: ADME, organism-based
Settings: in vivo
ENDPOINT_LABEL: Cmax
Just so you know, I need the unit written after the number.

Req: Would you kindly share the measured Cmax for `CC(=O)N[C@H]1[C@H](Oc2cccc(C(F)(F)F)c2-c2ccc(F)c(F)c2)O[C@H](CO)[C@H](O)[C@@H]1O` ?
Resp: 472 ng/mL

Req: Would you kindly share the measured Cmax for `CC(=O)N[C@H]1[C@H](Oc2cccc(C(F)(F)F)c2-c2ccc(F)cc2)O[C@H](CO)[C@H](O)[C@@H]1O` ?
Resp: 1480 ng/mL

###

So I've got a bunch of compounds here, and I need their Tmax values.
Assay: Tmax in mouse at 10 mg/kg, po by LC-MS/MS method
Format: ADME, organism-based
Details: in vivo
Report as a plain number; the unit h is understood.

Req: Would you kindly share the measured Tmax for `CC(=O)N[C@H]1[C@H](Oc2cccc(C(F)(F)F)c2-c2ccc(F)c(F)c2)O[C@H](CO)[C@H](O)[C@@H]1O` ?
Resp: 2.64

Req: Would you kindly share the measured Tmax for `CC(=O)N[C@H]1[C@H](Oc2cccc(C(F)(F)F)c2-c2ccc(F)cc2)O[C@H](CO)[C@H](O)[C@@H]1O` ?
Resp: 2

###

So I've got a bunch of compounds here, and I need their clearance values.
Experiment: Clearance in mouse at 3 mg/kg, iv by LC-MS/MS method
Type: ADME, organism-based
Details: in vivo
Report as a plain number; the unit mL/min/kg is understood.

Req: Would you kindly share the measured clearance for `CC(=O)N[C@H]1[C@H](Oc2cccc(C(F)(F)F)c2-c2ccc(F)cc2)O[C@H](CO)[C@H](O)[C@@H]1O` ?
Resp: 13.6

Req: Would you kindly share the measured clearance for `CC(=O)N[C@H]1[C@H](Oc2cccc(C(F)(F)F)c2-c2ccc(F)c(F)c2)O[C@H](CO)[C@H](O)[C@@H]1O` ?
Resp: 28

###

Assay: AUC(0 to infinity) in mouse at 10 mg/kg, po by LC-MS/MS method
Format: ADME, organism-based
Settings: in vivo
ENDPOINT_LABEL: AUC(0-inf) (ng·h/mL)
Report as a plain number; the unit ng·h/mL is understood.

Req: Would you kindly share the measured AUC(0-inf) for `CC(=O)N[C@H]1[C@H](Oc2cccc(C(F)(F)F)c2-c2ccc(F)c(F)c2)O[C@H](CO)[C@H](O)[C@@H]1O` ?
Resp: 1860

Req: Would you kindly share the measured AUC(0-inf) for `CC(=O)N[C@H]1[C@H](Oc2cccc(C(F)(F)F)c2-c2ccc(F)cc2)O[C@H](CO)[C@H](O)[C@@H]1O` ?
Resp: 6560

###

So I've got a bunch of compounds here, and I need their MRT inf values.
Experiment: MRT(0 to infinity) in mouse at 10 mg/kg, po by LC-MS/MS method
Assay type: ADME, organism-based
Conditions: in vivo
Report as a plain number; the unit h is understood.

Req: Would you kindly share the measured MRT inf for `CC(=O)N[C@H]1[C@H](Oc2cccc(C(F)(F)F)c2-c2ccc(F)cc2)O[C@H](CO)[C@H](O)[C@@H]1O` ?
Resp: 3.75

Req: Would you kindly share the measured MRT inf for `CC(=O)N[C@H]1[C@H](Oc2cccc(C(F)(F)F)c2-c2ccc(F)c(F)c2)O[C@H](CO)[C@H](O)[C@@H]1O` ?
Resp: 3.67

###

Test system: FmlH (Escherichia coli)
Assay: Inhibition of C-terminal 6His-tagged biotinylated FmIH (Escherichia coli CFT073) expressed in Escherichia coli C600 cells incubated for 1 hr
pIC50: −log10 of the molar value.
Everything with pIC50 lower than 6 is FALSE; everything else, including exactly 6, is TRUE.

Req: Is it the case that `CC(=O)N[C@H]1[C@H](Oc2cccc(C(F)(F)F)c2-c2ccc(F)c(F)c2)O[C@H](CO)[C@H](O)[C@@H]1O` has pIC50 reaching or exceeding 6?
Resp: TRUE

Req: Is it the case that `CC(=O)N[C@H]1[C@H](Oc2cccc(C(F)(F)F)c2-c2ccc(F)cc2F)O[C@H](CO)[C@H](O)[C@@H]1O` has pIC50 reaching or exceeding 6?
Resp: TRUE

Req: Is it the case that `CS(=O)(=O)Nc1cccc(-c2ccccc2C[C@@H]2O[C@H](CO)[C@H](O)[C@H](O)[C@H]2[N+](=O)[O-])c1` has pIC50 reaching or exceeding 6?
Resp: FALSE

Req: Is it the case that `CC(=O)N[C@H]1[C@H](Oc2cccc(C(F)(F)F)c2-c2cc(F)cc(C(F)(F)F)c2)O[C@H](CO)[C@H](O)[C@@H]1O` has pIC50 reaching or exceeding 6?
Resp: FALSE

Req: Is it the case that `CS(=O)(=O)Nc1cccc(-c2ccccc2O[C@@H]2O[C@H](CO)[C@H](O)[C@H](O)[C@H]2O)c1` has pIC50 reaching or exceeding 6?
Resp: FALSE

Req: Is it the case that `CC(=O)N[C@H]1[C@H](Oc2cccc(C(F)(F)F)c2-c2ccc3ccn(S(C)(=O)=O)c3c2)O[C@H](CO)[C@H](O)[C@@H]1O` has pIC50 reaching or exceeding 6?
Resp: TRUE

###

Experiment: Half-life in mouse at 3 mg/kg, iv by LC-MS/MS method
Assay type: ADME, organism-based
Conditions: in vivo
So I've got a bunch of molecules here, and I need their half-life values.
Report as a plain number; the unit h is understood.

Req: Would you kindly share the measured half-life for `CC(=O)N[C@H]1[C@H](Oc2cccc(C(F)(F)F)c2-c2ccc(F)c(F)c2)O[C@H](CO)[C@H](O)[C@@H]1O` ?
Resp: 1.26

Req: Would you kindly share the measured half-life for `CC(=O)N[C@H]1[C@H](Oc2cccc(C(F)(F)F)c2-c2ccc(F)cc2)O[C@H](CO)[C@H](O)[C@@H]1O` ?
Resp: 1.47

###

Test system: FmlH (Escherichia coli)
Assay: Inhibition of C-terminal 6His-tagged biotinylated FmIH (Escherichia coli CFT073) expressed in Escherichia coli C600 cells incubated for 1 hr
ENDPOINT_LABEL: IC50 (nM)
Report as a plain number; the unit nM is understood.

Req: What measured IC50 is associated with `CC(=O)N[C@H]1[C@H](Oc2cccc(C(F)(F)F)c2-c2ccccc2F)O[C@H](CO)[C@H](O)[C@@H]1O` on FmlH (Escherichia coli)?
Resp: 710

Req: What measured IC50 is associated with `CC(=O)N[C@H]1[C@H](Oc2cccc(C(F)(F)F)c2-c2cccc(F)c2)O[C@H](CO)[C@H](O)[C@@H]1O` on FmlH (Escherichia coli)?
Resp: 480

Req: What measured IC50 is associated with `CC(=O)N[C@@H]1[C@@H](O)[C@@H](O)[C@@H](CO)O[C@H]1Cc1ccccc1-c1cccc(NS(C)(=O)=O)c1` on FmlH (Escherichia coli)?
Resp: 15000

###

Assay: Drug concentration in mouse urine at 2 mg/kg, po measured at 24 hrs by HPLC-MS/MS analysis
Type: ADME, organism-based
Conditions: read-out: Ct
ENDPOINT_LABEL: concentration at 24 h (ng/mL)
Report as a plain number; the unit ng/mL is understood.

Req: Would you kindly share the measured concentration at 24 h for `CC(=O)N[C@H]1[C@H](Oc2cccc(C(F)(F)F)c2-c2ccc(F)cc2)O[C@H](CO)[C@H](O)[C@@H]1O` ?
Resp: 15.8

###

Experiment: Drug concentration in mouse urine at 20 mg/kg, po measured at 24 hrs by HPLC-MS/MS analysis
Assay type: ADME, organism-based
Conditions: read-out: Ct
ENDPOINT_LABEL: concentration at 24 h (ng/mL)
Report as a plain number; the unit ng/mL is understood.

Req: Would you kindly share the measured concentration at 24 h for `CC(=O)N[C@H]1[C@H](Oc2cccc(C(F)(F)F)c2-c2ccc(F)cc2)O[C@H](CO)[C@H](O)[C@@H]1O` ?
Resp: 66.3

###

Assay: Oral bioavailability in mouse at 10 mg/kg by LC-MS/MS method
Assay type: ADME, organism-based
Settings: in vivo
ENDPOINT_LABEL: bioavailability (%)
Report as a plain number; the unit % is understood.

Req: Would you kindly share the measured bioavailability for `CC(=O)N[C@H]1[C@H](Oc2cccc(C(F)(F)F)c2-c2ccc(F)c(F)c2)O[C@H](CO)[C@H](O)[C@@H]1O` ?
Resp: 30.7

Req: Would you kindly share the measured bioavailability for `CC(=O)N[C@H]1[C@H](Oc2cccc(C(F)(F)F)c2-c2ccc(F)cc2)O[C@H](CO)[C@H](O)[C@@H]1O` ?
Resp: 52.7

###

So I've got a bunch of compounds here, and I need their MRT last values.
Experiment: MRT(0 to last) in mouse at 10 mg/kg, po by LC-MS/MS method
Format: ADME, organism-based
Settings: in vivo
Report as a plain number; the unit h is understood.

Req: Would you kindly share the measured MRT last for `CC(=O)N[C@H]1[C@H](Oc2cccc(C(F)(F)F)c2-c2ccc(F)c(F)c2)O[C@H](CO)[C@H](O)[C@@H]1O` ?
Resp: 3.53

Req: Would you kindly share the measured MRT last for `CC(=O)N[C@H]1[C@H](Oc2cccc(C(F)(F)F)c2-c2ccc(F)cc2)O[C@H](CO)[C@H](O)[C@@H]1O` ?
Resp: 3.18
